Origin of values: patent US20250282785A1

target: Recombinant Human NF-Kappab-Inducing Kinase (NIK/MAP3K14) (Homo sapiens); test: Inhibition of auto-phosphorylation of recombinant human NIK/MAP3K14 (AlphaScreen); format: biochemical; details: NIK/MAP3K14 auto-phosphorylation, 5 microM ATP, 1 nM enzyme, 2 h at 25° C.; average of values; read-out: Assay 1 IC50
pIC50: −log10 of the molar value.
Reported values of pIC50 for individual entries

- compound: "CCn1nc(C(F)(F)F)cc1-c1cc(C(N)=O)nc(-c2cccc(-c3cc([C@]4(O)CCN(C)C4=O)on3)c2)c1"
  pIC50: "> 7.00"
- compound: "CN1CC[C@@](O)(c2cc(-c3cccc(-c4cccc(C(N)=O)n4)c3)[nH]n2)C1=O (single isomer, unassigned)"
  pIC50: "6.30 to 7.00"
- compound: "Cc1cc(-c2cccc(-c3cc([C@]4(O)CCN(C)C4=O)on3)c2)nc2c(N)ncnc12"
  pIC50: "> 7.00"
- compound: "CN1CC[C@@](O)(c2cc(-c3cccc(-c4nc(C(N)=O)c(N)cc4F)c3)no2)C1=O"
  pIC50: "> 7.00"
- compound: "CN1CC[C@@](O)(c2cc(-c3cccc(-c4cnc5cnccn45)c3)no2)C1=O"
  pIC50: "6.30 to 7.00"
- compound: "COc1ncccc1Nc1sc(-c2cccc(-c3cc([C@]4(O)CCN(C)C4=O)on3)c2)nc1C(N)=O"
  pIC50: "> 7.00"
- compound: "CN1CC[C@@](O)(c2cc(-c3cccc(-c4cc5c[nH]nc5cn4)c3)no2)C1=O"
  pIC50: "6.30 to 7.00"
- compound: "[2H]c1nc(N)c2nc(-c3cccc(-c4cc([C@@]5(O)CCN(C)C5=O)n[nH]4)c3)ccc2n1 (single isomer, unassigned)"
  pIC50: "< 6.30"
- compound: "COc1ccc2c(c1)c(C(N)=O)nn2-c1cccc(-c2cc([C@]3(O)CCN(C)C3=O)on2)c1"
  pIC50: "> 7.00"
- compound: "CN1CC[C@@](O)(c2cc(-c3cccc(-c4ccc5nnc(N)n5c4)c3)no2)C1=O"
  pIC50: "< 6.30"
- compound: "CN1CC[C@@](O)(c2cc(-c3cccc(-c4cncc(C(N)=O)n4)c3)no2)C1=O"
  pIC50: "> 7.00"
- compound: "CN1CC[C@@](O)(c2cc(-c3cccc(-c4cc(C5CC5)cc(C(N)=O)n4)c3)no2)C1=O"
  pIC50: "> 7.00"
- compound: "CN1CC[C@@](O)(c2cc(-c3cccc(-c4ncc(N)c(C(N)=O)n4)c3)no2)C1=O"
  pIC50: "> 7.00"
- compound: "COc1cc(-c2cccc(-c3cc([C@]4(O)CCN(C)C4=O)on3)c2)nc2c1c(C)nn2C"
  pIC50: "6.30 to 7.00"
- compound: "CN1CC[C@@](O)(c2cc(-c3cccc(-c4cc(C(F)(F)F)c5cn[nH]c5n4)c3)no2)C1=O"
  pIC50: "6.30 to 7.00"
- compound: "CN1CC[C@@](O)(c2cc(-c3ccc(F)c(-c4ncc(NC5COC5)c(C(N)=O)n4)c3)no2)C1=O"
  pIC50: "> 7.00"
- compound: "Cc1ccc(-c2cc([C@]3(O)CCN(C)C3=O)on2)cc1-c1nc2c(N)ncnc2s1"
  pIC50: "> 7.00"
- compound: "CN1CC[C@@](O)(c2cc(-c3cccc(-c4nc(C(N)=O)c(CNC5CCCC5)s4)c3)no2)C1=O"
  pIC50: "> 7.00"
- compound: "COc1cn(C)nc1Nc1cnc(-c2cccc(-c3cc([C@]4(O)CCN(C)C4=O)on3)c2)nc1C(N)=O"
  pIC50: "> 7.00"
- compound: "CN1CC[C@@](O)(c2cc(-c3cccc(-c4ccnc5[nH]ccc45)c3)no2)C1=O"
  pIC50: "> 7.00"
- compound: "CN1CC[C@@](O)(c2cc(-c3cccc(-c4nc(C(N)=O)c(N)c(C5CC5)n4)c3)no2)C1=O"
  pIC50: "> 7.00"
- compound: "CN1CC(F)(F)[C@@](O)(c2cc(-c3ccc(F)c(-c4nc(C(N)=O)c5[nH]ccc5n4)c3)no2)C1=O"
  pIC50: "> 7.00"
- compound: "CN1CC[C@@](O)(c2cc(-c3cccc(-c4ncc(C(N)=O)s4)c3)no2)C1=O"
  pIC50: "< 6.30"
- compound: "[2H]C([2H])([2H])N1CC[C@@](O)(c2cc(-c3cccc(-c4nc(C(N)=O)n5c4CCCC5)c3)no2)C1=O"
  pIC50: "> 7.00"
- compound: "CN1CC[C@@](O)(c2cc(-c3cccc(-n4nc(C(N)=O)c5ccccc54)c3)no2)C1=O"
  pIC50: "> 7.00"
- compound: "Cc1n[nH]c(C)c1Nc1cnc(-c2cccc(-c3cc([C@]4(O)CCN(C)C4=O)on3)c2)nc1C(N)=O"
  pIC50: "> 7.00"
- compound: "CCc1sc(-c2cccc(-c3cc([C@]4(O)CCN(C)C4=O)on3)c2)nc1C(N)=O"
  pIC50: "> 7.00"
- compound: "[2H]c1nc(N)c2nc(-c3cccc(-c4n[nH]c([C@]5(O)CCN(C)C5=O)n4)c3)ccc2n1 (single isomer, unassigned)"
  pIC50: "< 6.30"
- compound: "CN1CC[C@@](O)(c2cc(-c3cccc(-n4cc(C(N)=O)cn4)n3)no2)C1=O"
  pIC50: "< 6.30"

----------
molecular target: Recombinant Human NF-Kappab-Inducing Kinase (NIK/MAP3K14) (Homo sapiens, UniProt Q99558); assay: Inhibition of auto-phosphorylation of recombinant human NIK/MAP3K14 (AlphaScreen); type: biochemical; conditions: NIK/MAP3K14 auto-phosphorylation, 5 microM ATP, 1 nM enzyme, 2 h at 25° C.; average of values; read-out: Assay 1 IC50
Sequence (Q99558 whole entry): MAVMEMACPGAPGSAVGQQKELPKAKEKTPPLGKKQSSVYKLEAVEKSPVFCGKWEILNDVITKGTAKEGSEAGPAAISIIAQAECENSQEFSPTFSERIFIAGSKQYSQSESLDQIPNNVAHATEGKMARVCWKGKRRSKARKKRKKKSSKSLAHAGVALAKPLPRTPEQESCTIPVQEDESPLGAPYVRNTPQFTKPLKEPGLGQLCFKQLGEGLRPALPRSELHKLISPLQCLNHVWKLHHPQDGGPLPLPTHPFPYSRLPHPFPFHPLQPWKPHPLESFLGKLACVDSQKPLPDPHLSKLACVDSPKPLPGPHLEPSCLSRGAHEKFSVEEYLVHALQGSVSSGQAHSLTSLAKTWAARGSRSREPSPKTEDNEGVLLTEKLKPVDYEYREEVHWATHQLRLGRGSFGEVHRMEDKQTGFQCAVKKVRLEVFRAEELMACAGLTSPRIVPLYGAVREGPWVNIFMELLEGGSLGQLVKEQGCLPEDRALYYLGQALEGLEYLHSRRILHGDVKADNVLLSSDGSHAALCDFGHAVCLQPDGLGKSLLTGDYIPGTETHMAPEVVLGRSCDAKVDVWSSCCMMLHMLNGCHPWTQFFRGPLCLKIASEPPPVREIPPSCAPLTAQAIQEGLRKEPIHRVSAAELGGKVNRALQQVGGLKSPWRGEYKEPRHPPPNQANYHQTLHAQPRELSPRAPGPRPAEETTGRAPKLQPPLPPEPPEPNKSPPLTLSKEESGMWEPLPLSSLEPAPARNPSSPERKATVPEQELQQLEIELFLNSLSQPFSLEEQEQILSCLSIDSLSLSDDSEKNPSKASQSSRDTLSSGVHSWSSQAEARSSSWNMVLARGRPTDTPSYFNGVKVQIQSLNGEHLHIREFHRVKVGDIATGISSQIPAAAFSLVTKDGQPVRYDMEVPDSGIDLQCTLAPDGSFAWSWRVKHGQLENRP
# IC50 listing for each entry below
reported-endpoint: IC50

- mol-smiles: "CN1CC[C@@](O)(c2cc(-c3cccc(-c4nc(C(N)=O)n5ccncc45)c3)no2)C1=O"
  target-entity: "Recombinant Human NF-Kappab-Inducing Kinase (NIK/MAP3K14) (Homo sapiens, UniProt Q99558)"
  reported-endpoint: "IC50"
  reported: "< 100 nM"
- mol-smiles: "Cc1ccc(-c2cccc(C(N)=O)n2)cc1-c1cc([C@]2(O)CCN(C)C2=O)on1"
  target-entity: "Recombinant Human NF-Kappab-Inducing Kinase (NIK/MAP3K14) (Homo sapiens, UniProt Q99558)"
  reported-endpoint: "IC50"
  reported: "> 501 nM"
- mol-smiles: "[2H]c1nc(N)c2nc(-c3cccc(-n4cc([C@]5(O)CCN(C)C5=O)nn4)c3)ccc2n1"
  target-entity: "Recombinant Human NF-Kappab-Inducing Kinase (NIK/MAP3K14) (Homo sapiens, UniProt Q99558)"
  reported-endpoint: "IC50"
  reported: "< 100 nM"
- mol-smiles: "CN1CC[C@@](O)(c2cc(-c3cccc(-c4cc(C5CC5)nc(C(N)=O)n4)c3)no2)C1=O"
  target-entity: "Recombinant Human NF-Kappab-Inducing Kinase (NIK/MAP3K14) (Homo sapiens, UniProt Q99558)"
  reported-endpoint: "IC50"
  reported: "< 100 nM"
- mol-smiles: "CN1CC[C@@](O)(c2cc(-c3cccc(-c4ccn5nccc5n4)c3)no2)C1=O"
  target-entity: "Recombinant Human NF-Kappab-Inducing Kinase (NIK/MAP3K14) (Homo sapiens, UniProt Q99558)"
  reported-endpoint: "IC50"
  reported: "> 501 nM"
- mol-smiles: "CN1CC[C@@](O)(c2cc(-c3cccc(-c4nc(C(N)=O)c(N)s4)c3)no2)C1=O"
  target-entity: "Recombinant Human NF-Kappab-Inducing Kinase (NIK/MAP3K14) (Homo sapiens, UniProt Q99558)"
  reported-endpoint: "IC50"
  reported: "< 100 nM"
- mol-smiles: "Cc1cc(-c2cccc(-c3cc([C@@]4(O)CCN(C)C4=O)on3)c2)nc2c(N)ncnc12"
  target-entity: "Recombinant Human NF-Kappab-Inducing Kinase (NIK/MAP3K14) (Homo sapiens, UniProt Q99558)"
  reported-endpoint: "IC50"
  reported: "> 501 nM"
- mol-smiles: "CN1CC[C@@](O)(c2cc(-c3cccc(-c4ccc5c(c4)N(C)C(=O)CN5)c3)no2)C1=O"
  target-entity: "Recombinant Human NF-Kappab-Inducing Kinase (NIK/MAP3K14) (Homo sapiens, UniProt Q99558)"
  reported-endpoint: "IC50"
  reported: "> 501 nM"
- mol-smiles: "CN1CC[C@@](O)(c2cc(-c3cccc(-c4nc(C(N)=O)c(CNc5ccn(C)n5)s4)c3)no2)C1=O"
  target-entity: "Recombinant Human NF-Kappab-Inducing Kinase (NIK/MAP3K14) (Homo sapiens, UniProt Q99558)"
  reported-endpoint: "IC50"
  reported: "< 100 nM"
- mol-smiles: "CNc1sc(-c2cccc(-c3cc([C@]4(O)CCN(C)C4=O)on3)c2)nc1C(N)=O"
  target-entity: "Recombinant Human NF-Kappab-Inducing Kinase (NIK/MAP3K14) (Homo sapiens, UniProt Q99558)"
  reported-endpoint: "IC50"
  reported: "< 100 nM"
- mol-smiles: "CN1CC[C@@](O)(c2cc(-c3cccc(-c4cc(C(F)(F)F)c(N)c(C(N)=O)n4)c3)no2)C1=O"
  target-entity: "Recombinant Human NF-Kappab-Inducing Kinase (NIK/MAP3K14) (Homo sapiens, UniProt Q99558)"
  reported-endpoint: "IC50"
  reported: "< 100 nM"
- mol-smiles: "Cc1ccc(C(N)=O)nc1-c1cccc(-c2cc([C@]3(O)CCN(C)C3=O)on2)c1"
  target-entity: "Recombinant Human NF-Kappab-Inducing Kinase (NIK/MAP3K14) (Homo sapiens, UniProt Q99558)"
  reported-endpoint: "IC50"
  reported: "100 to 500 nM"
